target: Sigma non-opioid intracellular receptor 1 (Cavia porcellus, UniProt Q60492); assay: Displacement of [3H]-(+)-pentazocine from sigma-1 receptor in guinea pig brain cortex membranes after 120 mins by scintillation counting analysis
Sequence (Q60492 whole entry): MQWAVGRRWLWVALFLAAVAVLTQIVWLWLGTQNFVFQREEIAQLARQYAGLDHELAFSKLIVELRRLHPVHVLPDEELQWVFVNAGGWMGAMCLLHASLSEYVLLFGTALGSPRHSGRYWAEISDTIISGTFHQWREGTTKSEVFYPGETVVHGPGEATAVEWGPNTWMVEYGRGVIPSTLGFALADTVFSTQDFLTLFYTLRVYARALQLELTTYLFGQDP
Readout Name: Ki (nM)
Give your result in nM as a bare value.

Worked set:
{"columns": ["Structure Notation", "Measured Value"],
 "data": [
  ["CCCCN1CCN(Cc2ccccc2)[C@@H](CCO)C1", 279],
  ["OCC[C@@H]1CN(CC2CCCCC2)CCN1Cc1cccc2ccccc12", 0.9]
]}

Next:
For CCCCN1CCN(Cc2ccc(OC)cc2)[C@@H](CCO)C1 , what is its reported Ki?
491
